B1: PRPH (parent)
chain: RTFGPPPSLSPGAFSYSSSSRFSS

Variants of: B1
Test: protein stability index of a GFP-peptide fusion (GPS, HEK-293T) (PSI 1-6); higher = more stable;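 note: lentivirally expressed fusions sorted by FACS into six bins by GFP to DsRed ratio, PSI derived from sequencing read proportions per bin multiplied by bin number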
Settings: c terminus: a fixed tail appended
Kindly return Yes if reported protein stability index is no lower than 3; return No if it is lower.

Below, 8 variants whose answers are already recorded.
Would you say "G12E" shows protein stability index at minimum 3?
Yes

Next up: "A13N"
Yes

Now the variant "P11V"
No

Same thing, different variant: "F3K"
Yes

Now the same for "G12W"
No

Now this one: "S18W"
No

Now the variant "S17Q"
Yes

What do you have for "S8I" ?
No

Others:
Entry "P7V" : is its protein stability index no less than 3?
No

"G12D" ?
Yes

Try this variant too: "S8E"
Yes

Next variant up: "Y16D"
Yes

Then what about the variant "Y16T" ?
Yes

Source listed as the supplement of paper PMC10567573.
